Hey, just so you know, these numbers are from paper PMC10786891.

System under test: T1, EsCas13d, nuclease-dead (Eubacterium siraeum, UniProt B0MS50, R295A;H300A;R849A;H854A)
T1 sequence: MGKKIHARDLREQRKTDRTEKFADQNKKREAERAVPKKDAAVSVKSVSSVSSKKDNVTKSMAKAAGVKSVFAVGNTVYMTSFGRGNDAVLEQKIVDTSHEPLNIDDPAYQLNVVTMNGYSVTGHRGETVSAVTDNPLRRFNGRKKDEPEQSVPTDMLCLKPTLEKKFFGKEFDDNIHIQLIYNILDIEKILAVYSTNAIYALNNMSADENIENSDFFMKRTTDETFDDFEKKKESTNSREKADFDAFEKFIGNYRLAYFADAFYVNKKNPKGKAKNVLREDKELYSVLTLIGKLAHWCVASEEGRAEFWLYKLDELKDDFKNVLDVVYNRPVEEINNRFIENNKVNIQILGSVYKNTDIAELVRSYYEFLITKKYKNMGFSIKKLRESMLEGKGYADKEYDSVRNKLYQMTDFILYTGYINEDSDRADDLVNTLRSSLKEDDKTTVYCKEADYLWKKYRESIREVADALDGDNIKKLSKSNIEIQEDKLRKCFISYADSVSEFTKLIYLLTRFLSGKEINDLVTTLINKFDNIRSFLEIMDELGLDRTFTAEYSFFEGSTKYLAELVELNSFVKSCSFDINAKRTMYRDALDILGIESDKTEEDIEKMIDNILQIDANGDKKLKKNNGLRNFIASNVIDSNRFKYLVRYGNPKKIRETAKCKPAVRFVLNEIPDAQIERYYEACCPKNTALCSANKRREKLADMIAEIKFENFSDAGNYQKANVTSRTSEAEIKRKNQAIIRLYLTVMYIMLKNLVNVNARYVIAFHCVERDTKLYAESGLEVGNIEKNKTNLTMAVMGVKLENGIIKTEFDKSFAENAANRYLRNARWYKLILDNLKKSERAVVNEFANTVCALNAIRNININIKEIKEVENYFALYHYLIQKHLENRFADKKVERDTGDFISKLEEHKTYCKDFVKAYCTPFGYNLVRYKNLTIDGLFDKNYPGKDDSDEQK
Experimental protocol: crRNA (strand 1, pre-loaded); Mg2+; 40 mM Tris-HCl pH 7.5, 150 mM NaCl, 6 mM MgCl2, 1 mM DTT, 0.1% Tween-20, 0.2 mg/ml BSA; 25 C; 10 min per concentration, then washed
Condition set: tags: His6-TwinStrep-SUMO cleaved; N-terminal SNAP kept (SNAP-Surface 488); label: 3' end held by stalled T7 RNA polymerase
Readout: Kd (µM)
Give your result in µM as a bare value.

// Kd lookup, binder = target 2 MT 5'PFS CUG 3'PFS CGA (mixed) RNA 1: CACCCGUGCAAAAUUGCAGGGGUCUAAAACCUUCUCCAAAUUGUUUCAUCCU RNA 2: GGGAAUGGAUCCACAUCUACGAAUUCCUGAGGAUGAAACAAUUUGGAGAAGCGAAGAUCGGAAGAGCACACGU , result: 0.0034

target 1 MT 5'PFS CUU 3'PFS AAC (mixed) RNA 1: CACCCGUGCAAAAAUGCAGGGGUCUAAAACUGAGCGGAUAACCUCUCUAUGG RNA 2: GGGAAUGGAUCCACAUCUACGAAUUCCUUCCAUAGAGAGGUUAUCCGCUCAAACAGAUCGGAAGAGCACACGU yielded Kd of 0.041

Kindly note the recorded Kd for target 1 C7A,U19C (mixed) RNA 1: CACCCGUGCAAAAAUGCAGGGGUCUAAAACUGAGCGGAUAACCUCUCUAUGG RNA 2: GGGAAUGGAUCCACAUCUACGAAUUCGUACCACAGAGAGGUUAUACGCUCACCGAGAUCGGAAGAGCACACGU , which is 0.0332

The binder listed as target 1 insU 3' of 21,insG 3' of 16 (mixed) RNA 1: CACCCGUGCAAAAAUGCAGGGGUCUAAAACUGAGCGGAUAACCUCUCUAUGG RNA 2: GGGAAUGGAUCCACAUCUACGAAUUCGUACCUAUAGAGGAGGUUAUCCGCUCACCGAGAUCGGAAGAGCACACGU has a reported Kd of 0.087
